Assay: chemical genetic growth profiling, strain panel (AID 1159580);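 further: tested at 20 µM; growth read once vehicle control cultures reached saturation at 30 °C; 1 = growth at the plate median or of vehicle wells; lower values mean less growth of the strain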
Settings: S. cerevisiae deletion strains, growth OD, locus YML120C, strain ndi1, active compounds read low
In all, about 5,500 compounds went through this assay and about 2,000 (36%) were called active. Not shown: some 18% with an inconclusive outcome. Some of the results follow.
Consider the following compounds; for each one, report its normalized growth.

Compound	normalized growth
C=CCc1ccccc1OCC(O)CNC(C)C (stereo not given)	0.994 (inactive)
CC(=O)O[C@@H]1CC2C(C)(C)CCC(=O)[C@]2(C)C2CC[C@@]3(C)[C@H](c4ccoc4)OC(=O)C4OC43[C@@]21C (stereo not given in full)	1 (inactive)
CC(=O)O[C@H]1C[C@@]2(C)[C@H](c3ccoc3)OC(=O)[C@H]3O[C@]32[C@@]2(C)C1[C@]1(C)C(C[C@H]2OC(C)=O)C(C)(C)[C@H](OC(C)=O)C[C@@H]1OC(C)=O (stereo not given in full)	1.02 (inactive)
CC(=O)OCC(=O)[C@H]1CCC2C3CC=C4C[C@@H](O)CC[C@]4(C)C3CC[C@@]21C (stereo not given in full)	0.805 (active)

Attention now shifts to the item below.
# input Data request, read-out normalized growth, for CC(=O)O[C@@H]1CC2C(C)(C)[C@H](O)C[C@H](O)[C@]2(C)C2CC[C@@]3(C)[C@H](c4ccoc4)OC(=O)[C@H]4O[C@]43[C@@]21C (stereo not given in full)
# output 0.996 (inactive)
